- STUDY_TARGET: HIV Env of isolate C1080.c03 (clade AE) (HIV)
- METHOD_SUMMARY: cell-based or functional assay
Assign IC50 (µg/ml) with constrains to each entry below.
One number for each entry, in µg/mL.

| BINDER | VALUE |
| --- | --- |
| ePGDM9 (antibody, V domains shown) VH: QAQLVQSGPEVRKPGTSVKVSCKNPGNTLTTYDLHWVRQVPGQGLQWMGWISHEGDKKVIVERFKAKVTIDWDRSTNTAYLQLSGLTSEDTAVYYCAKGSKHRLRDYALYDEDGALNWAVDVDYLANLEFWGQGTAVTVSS VL: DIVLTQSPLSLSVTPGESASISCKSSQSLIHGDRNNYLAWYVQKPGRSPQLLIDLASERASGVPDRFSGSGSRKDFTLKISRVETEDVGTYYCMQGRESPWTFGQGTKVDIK | 0.001 |

For the 3 binders below, give their IC50 (µg/ml) with constrains values.
1. ePGDM5 (antibody, V domains shown) VH: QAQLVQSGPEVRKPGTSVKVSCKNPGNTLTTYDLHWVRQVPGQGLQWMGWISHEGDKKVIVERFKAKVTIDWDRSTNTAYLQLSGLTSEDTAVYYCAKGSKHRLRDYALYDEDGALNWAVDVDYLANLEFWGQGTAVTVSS VL: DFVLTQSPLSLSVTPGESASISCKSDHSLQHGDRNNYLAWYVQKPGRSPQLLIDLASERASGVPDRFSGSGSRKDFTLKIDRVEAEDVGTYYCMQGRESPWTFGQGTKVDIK
2. PGDM1400 (antibody, V domains shown) VH: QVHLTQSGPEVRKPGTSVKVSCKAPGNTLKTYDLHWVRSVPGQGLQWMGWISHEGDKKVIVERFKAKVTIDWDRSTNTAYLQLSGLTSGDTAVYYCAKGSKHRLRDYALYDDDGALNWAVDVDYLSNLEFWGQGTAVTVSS VL: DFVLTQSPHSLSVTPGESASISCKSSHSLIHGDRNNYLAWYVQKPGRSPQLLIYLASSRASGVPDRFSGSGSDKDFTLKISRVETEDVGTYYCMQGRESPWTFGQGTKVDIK
3. ePGDM13 (antibody, V domains shown) VH: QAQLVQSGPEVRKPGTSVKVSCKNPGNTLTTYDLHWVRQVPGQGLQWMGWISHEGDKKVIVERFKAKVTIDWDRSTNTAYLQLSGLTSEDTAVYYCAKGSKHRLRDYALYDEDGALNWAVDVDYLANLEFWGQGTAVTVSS VL: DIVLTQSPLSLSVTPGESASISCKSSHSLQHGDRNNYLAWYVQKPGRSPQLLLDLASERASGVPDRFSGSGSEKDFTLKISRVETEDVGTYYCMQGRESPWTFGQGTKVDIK

[0.003, 0.001, 0.001]
